Test system: AIK-T8
Assay: Ability to inhibit […] activity at 2.5 uM and 200 ng/ml PSC833 in a mitoxantrone accumulation assay on T8 human cell line
Type: ADME, cell-based
Settings: aik-t8, 2.5 µM
Lab note: anything with Fluorescence below 300% is marked 1.0; values at 300% or higher are marked 0.0.

>>> group_label("CCC1c2[nH]c3ccccc3c2C[C@H]2C(=O)NC(CCC(=O)OC(C)(C)C)C(=O)N12 (some centres not stated)")
0.0
>>> group_label("CCCCCC1c2[nH]c3ccccc3c2C[C@H]2C(=O)NC(Cc3c[nH]c4ccccc34)C(=O)N12 (some centres not stated)")
0.0
>>> group_label("CC(C)CC1c2[nH]c3ccccc3c2C[C@H]2C(=O)NC(Cc3ccccc3)C(=O)N12 (some centres not stated)")
0.0
>>> group_label("O=C1NC(N2CCCC2)C(=O)N2C(c3ccccc3)c3[nH]c4ccccc4c3C[C@@H]12 (some centres not stated)")
1.0
>>> group_label("O=C1NC(Cc2c[nH]c3ccccc23)C(=O)N2C(C3CCCCC3)c3[nH]c4ccccc4c3C[C@@H]12 (some centres not stated)")
0.0
>>> group_label("CC(C)CC1c2[nH]c3ccccc3c2C[C@H]2C(=O)NC(CCC(=O)OC(C)(C)C)C(=O)N12 (some centres not stated)")
0.0
>>> group_label("CCC1c2[nH]c3ccccc3c2C[C@H]2C(=O)NC(C)C(=O)N12 (some centres not stated)")
1.0
